Where do these numbers come from? They come from the Human Domainome abundance scans (Beltran et al. 2025).

Record form. Attribute: abundance fitness. Fill in for each entry.
B1: Tyrosine-protein kinase BTK, residues 215 to 273; numbered along this chain, Q06187 (parent)
chain: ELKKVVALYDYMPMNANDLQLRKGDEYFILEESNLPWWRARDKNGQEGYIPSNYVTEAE

Variants of: B1
method_description: abundance fitness (aPCA) (normalised: wild type 0, dead -1); higher = more abundant; growth selection in yeast, the domain comes from the species named
condition_notes: Homo sapiens
One number for each entry.

[[record]]
var = "L30E"
experimental_readout = "abundance fitness"
measured_number = -0.104

[[record]]
var = "E31F"
experimental_readout = "abundance fitness"
measured_number = -0.005

[[record]]
var = "F28Y"
experimental_readout = "abundance fitness"
measured_number = -0.068

[[record]]
var = "E26G"
experimental_readout = "abundance fitness"
measured_number = -0.191

[[record]]
var = "L19Y"
experimental_readout = "abundance fitness"
measured_number = -0.66


The following variants each have a reported value; give each one's abundance fitness.
1. A58N
2. L19A

Reply:
-0.012
-0.796
